# assay system: T1, rat collagen, acid soluble, type I, rat tail (Upstate 08-115) (rat, UniProt P02454 152-1207; P02466 86-1125)
# T1 construct: tissue extract, gelled and dried in wells; also called dried rat collagen
# T1 sequence (P02454 152-1207, chain 1 of 2): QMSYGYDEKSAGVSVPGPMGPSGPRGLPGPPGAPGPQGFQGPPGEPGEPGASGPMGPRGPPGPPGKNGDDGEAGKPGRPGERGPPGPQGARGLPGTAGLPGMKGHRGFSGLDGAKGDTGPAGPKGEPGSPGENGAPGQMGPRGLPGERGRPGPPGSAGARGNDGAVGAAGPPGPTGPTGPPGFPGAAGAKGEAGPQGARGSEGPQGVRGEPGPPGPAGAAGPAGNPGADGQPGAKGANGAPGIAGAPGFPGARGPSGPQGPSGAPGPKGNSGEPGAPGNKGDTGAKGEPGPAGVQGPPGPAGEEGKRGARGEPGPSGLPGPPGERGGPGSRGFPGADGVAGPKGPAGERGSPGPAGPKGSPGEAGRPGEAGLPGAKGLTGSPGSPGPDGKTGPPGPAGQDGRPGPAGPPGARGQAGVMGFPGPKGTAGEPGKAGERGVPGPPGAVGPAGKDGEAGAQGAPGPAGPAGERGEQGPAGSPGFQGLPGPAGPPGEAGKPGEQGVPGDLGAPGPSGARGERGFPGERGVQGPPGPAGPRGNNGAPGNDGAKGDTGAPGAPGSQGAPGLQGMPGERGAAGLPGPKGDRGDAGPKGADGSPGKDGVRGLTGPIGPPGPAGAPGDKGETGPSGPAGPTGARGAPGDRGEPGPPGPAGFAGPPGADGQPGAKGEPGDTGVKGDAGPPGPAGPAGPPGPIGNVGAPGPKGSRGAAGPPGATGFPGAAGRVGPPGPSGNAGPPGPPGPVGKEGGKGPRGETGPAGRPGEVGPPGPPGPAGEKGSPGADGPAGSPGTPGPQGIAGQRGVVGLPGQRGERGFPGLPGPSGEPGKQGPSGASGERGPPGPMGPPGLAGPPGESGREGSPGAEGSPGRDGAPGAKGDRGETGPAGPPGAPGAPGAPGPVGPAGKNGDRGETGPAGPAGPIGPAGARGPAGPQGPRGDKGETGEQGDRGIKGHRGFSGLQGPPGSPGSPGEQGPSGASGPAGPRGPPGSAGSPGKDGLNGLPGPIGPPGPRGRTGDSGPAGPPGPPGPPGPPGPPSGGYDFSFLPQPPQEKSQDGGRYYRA
# T1 sequence (P02466 86-1125, chain 2 of 2): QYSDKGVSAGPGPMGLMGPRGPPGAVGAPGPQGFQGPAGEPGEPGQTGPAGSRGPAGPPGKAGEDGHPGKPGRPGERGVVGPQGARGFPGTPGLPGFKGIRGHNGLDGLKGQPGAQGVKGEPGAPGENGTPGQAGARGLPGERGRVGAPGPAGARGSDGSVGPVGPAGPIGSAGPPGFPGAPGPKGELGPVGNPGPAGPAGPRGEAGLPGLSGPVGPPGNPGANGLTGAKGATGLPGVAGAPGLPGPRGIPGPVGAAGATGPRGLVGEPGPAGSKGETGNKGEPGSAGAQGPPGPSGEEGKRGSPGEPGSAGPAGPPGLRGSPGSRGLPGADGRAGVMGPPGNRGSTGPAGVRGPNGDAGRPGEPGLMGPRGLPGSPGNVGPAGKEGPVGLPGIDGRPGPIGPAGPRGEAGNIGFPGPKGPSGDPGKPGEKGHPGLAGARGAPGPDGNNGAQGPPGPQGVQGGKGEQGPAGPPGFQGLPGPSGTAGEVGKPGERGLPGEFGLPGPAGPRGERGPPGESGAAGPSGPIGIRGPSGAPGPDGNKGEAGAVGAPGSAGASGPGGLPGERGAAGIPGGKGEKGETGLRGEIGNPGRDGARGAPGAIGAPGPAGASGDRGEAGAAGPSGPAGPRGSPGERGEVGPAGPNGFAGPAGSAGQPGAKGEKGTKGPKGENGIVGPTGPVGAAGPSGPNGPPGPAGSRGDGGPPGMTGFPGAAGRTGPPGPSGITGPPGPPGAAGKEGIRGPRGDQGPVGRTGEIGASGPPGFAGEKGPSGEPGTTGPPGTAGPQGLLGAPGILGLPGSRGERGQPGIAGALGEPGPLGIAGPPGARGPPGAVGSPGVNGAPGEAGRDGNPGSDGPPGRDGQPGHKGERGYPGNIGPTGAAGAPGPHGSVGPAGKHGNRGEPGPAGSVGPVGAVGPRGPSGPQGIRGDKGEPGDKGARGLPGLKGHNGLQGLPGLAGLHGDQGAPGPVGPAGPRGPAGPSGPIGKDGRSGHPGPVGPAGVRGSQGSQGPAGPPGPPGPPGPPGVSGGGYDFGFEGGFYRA
# experiment notes: dried collagen assay; further: test concentration or dose not given here
Bridge positions count the residues as written; N and C are the ends. Square brackets hold non-standard residues; d marks the D form. Ends that are not written are not given here.
For each record, write down the corresponding % bound.
Numbers only, in %.

These recorded examples may help you get a feel for the data.
binder	% bound [%]
DWTCS[dS]DEYTWHCNYE (disulfide 4-13 (inferred), cyclic, disulfide) [SEQ ID NO 180]	72
YHASYQAGSWIW (printed without cysteines (S for C)) [SEQ ID NO 111]	24
GQWTCSGDEYTAHCNYE (disulfide 5-14 (inferred); not fully specified (C-terminus), cyclic, disulfide) [SEQ ID NO 147]	1
DWTCSGDEYAWHCNY[dE] (disulfide 4-13 (inferred), cyclic, disulfide) [SEQ ID NO 120]	28
DWTCSGDEFTWHCNYE (disulfide 4-13 (inferred), cyclic, disulfide) [SEQ ID NO 119]	55
YHAC[dY]QAGCWIW (disulfide 4-9 (inferred); not fully specified (C-terminus); printed as YHACyQAGCWIW, cyclic, disulfide; also called YHACyQAGCWIW) [SEQ ID NO 156]	48
QWTCSGDEYTWHCNY[dE] (disulfide 4-13 (inferred); not fully specified (N-terminus); printed as QWTCSGDEYTWHCNYe, cyclic, disulfide) [SEQ ID NO 178]	87
GQWTCSGDEYTWSCNYE (disulfide 5-14 (inferred), cyclic, disulfide) [SEQ ID NO 127]	73
DWTCS[dA]DEYTWHCNYE (disulfide 4-13 (inferred), cyclic, disulfide) [SEQ ID NO 179]	75
GQWTCSGDEATWHCNYE (disulfide 5-14 (inferred); not fully specified (C-terminus), cyclic, disulfide) [SEQ ID NO 145]	50

**Query** May I ask what % bound has been recorded for YSACYQAGCYIY (disulfide 4-9 (inferred), cyclic, disulfide) [SEQ ID NO 110] ?
**Result** 2
